- Read-out: Interleukin-8 (IL8), CXCL8 (gene 3576)
- PROTOCOL: BSK_3C_IL8: BioMAP Diversity Plus: 3C Assay for Interleukin-8 (IL8) Biomarker Activity (AID 2283020)
- TEST_CONTEXT: primary human endothelial cells (HUVEC); actives raise or lower the signal
The source made the active and inactive calls. The calls were made as follows: active = hit-call score of the fitted dose curve at least 0.9, where 1 is the maximum; inactive = score below 0.9.
Possible outcomes: y (active), n (inactive)

> print(dat)
                                   compound  category.label
1          C=C[Si](OC(C)=O)(OC(C)=O)OC(C)=O               n
2                            O=Nc1ccc(O)cc1               n
3                              O=C1CCCN1CCO               n
4  C=CCOCC(O)CCl (configuration not stated)               n
5                        COc1ccc2nc(N)sc2c1               n
6      c1ccc2c(c1)ccc1cc3c(ccc4ccccc43)cc12               n
7  CCCCC(CC)COC(=O)c1ccccc1O (configuration not stated)               y

Source: PubChem BioAssay (EPA / NIEHS)
